IC50 for Receptor-type tyrosine-protein kinase FLT3 (Homo sapiens) - collated from the literature.

// known answers, use as guide
{"compound": "COC[C@H](C)Nc1ncc2c(-c3cnnc(C)c3)cc([C@H]3CC[C@H](O)CC3)n2n1", "IC50": "1000 to 10000 nM"}
{"compound": "O=C(O)c1ccc(Nc2ncc3c(OC4CCNCC4)ncc([C@H]4CC[C@H](O)CC4)c3n2)cc1", "IC50": "100 to 1000 nM"}

Entry CCCCC[C@H](C)Nc1ncc2c([C@H]3CC[C@@H](C(=O)N4CCS(=O)(=O)CC4)CC3)cc([C@H]3CC[C@H](O)CC3)n2n1 , system Receptor-type tyrosine-protein kinase FLT3 (Homo sapiens): what IC50 was measured?
100 to 1000 nM

Recall the recorded IC50 for COC[C@H](C)Nc1ncc2c(-c3ccnc(OC4CCCN(C)C4)c3)cc([C@H]3CC[C@H](O)CC3)n2n1 (stereo partly drawn) with Receptor-type tyrosine-protein kinase FLT3 (Homo sapiens) and state it.
100 to 1000 nM

Request body: readout IC50, system Receptor-type tyrosine-protein kinase FLT3 (Homo sapiens), query O=C1Nc2cc(NC(=O)c3cccn(-c4ccc(Cl)cc4)c3=O)ccc2/C1=C/c1ccc[nH]1 . Return the value.
26.3 nM

Which IC50 is reported with Receptor-type tyrosine-protein kinase FLT3 (Homo sapiens) for this entry: C[C@H](Nc1ncc2c(-c3ccc(CN4CCOCC4)cc3)cc([C@H]3CC[C@H](O)CC3)n2n1)[C@@H]1CCCO1 ?
1000 to 10000 nM

====

Endpoint summary: IC50, system: Receptor-type tyrosine-protein kinase FLT3 (Homo sapiens, UniProt P36888), multiple sources combined.

{"itemSmiles": "COC[C@H](C)Nc1ncc2c(O[C@@H]3CCN(C)C3)ncc([C@H]3CC[C@H](O)CC3)c2n1", "assayMetric": "IC50", "recordedValue": "1000 to 10000 nM"}
{"itemSmiles": "COc1ccc(-c2c[nH]cc(C(=O)Nc3ccc4c(c3)NC(=O)/C4=C\\c3[nH]c(C)c(C(=O)N4CCOCC4)c3C)c2=O)cc1", "assayMetric": "IC50", "recordedValue": "34.9 nM"}
{"itemSmiles": "CN(C)C(=O)N1CCN(Cc2ccnc(Nc3cc4ccccc4cn3)c2)CC1", "assayMetric": "IC50", "recordedValue": "< 100 nM"}
{"itemSmiles": "CCc1nc2c(N)ncc(-c3cnn(C4CCN(c5ccnc(C)c5)CC4)c3)c2nc1N[C@@H]1CC[C@H](O)C1", "assayMetric": "IC50", "recordedValue": "≤ 10 nM"}

// next entry
// lookup IC50 | system=Receptor-type tyrosine-protein kinase FLT3 (Homo sapiens, UniProt P36888) | key= COC[C@H](C)Nc1ncc2c(-c3cnn(Cc4nnc(C)s4)c3)cc([C@H]3CC[C@H](O)CC3)n2n1
100 to 1000 nM

====

pIC50: −log10 of the molar value.
Target or system Receptor-type tyrosine-protein kinase FLT3 (Homo sapiens, UniProt P36888); metric pIC50; compiled from varied reports.

Take a look at these entries with their results.
{"compound": "CCc1nc2c(N)ncc(-c3cnn(-c4ccnc(C)n4)c3)c2nc1N[C@@H]1CC[C@H](O)C1", "assayedSystem": "Receptor-type tyrosine-protein kinase FLT3 (Homo sapiens, UniProt P36888)", "pIC50": "≥ 8.00"}
{"compound": "COC[C@H](C)Nc1ncc2c([C@H]3CC[C@@H](C(=O)N4CC5(COC5)C4)CC3)cc([C@H]3CC[C@H](O)CC3)n2n1", "assayedSystem": "Receptor-type tyrosine-protein kinase FLT3 (Homo sapiens, UniProt P36888)", "pIC50": "5.00 to 6.00"}
{"compound": "C[C@@H](COC(F)F)Nc1ncc2c(-c3cnn(C(C)(C)C(=O)N4CC5(COC5)C4)c3)cc([C@H]3CC[C@H](O)CC3)n2n1", "assayedSystem": "Receptor-type tyrosine-protein kinase FLT3 (Homo sapiens, UniProt P36888)", "pIC50": "≥ 7.00"}
{"compound": "COC[C@H](C)Nc1ncc2c(-c3ccnc(N4CCN(C)CC4)c3)cc([C@H]3CC[C@H](O)CC3)n2n1", "assayedSystem": "Receptor-type tyrosine-protein kinase FLT3 (Homo sapiens, UniProt P36888)", "pIC50": "6.00 to 7.00"}
{"compound": "CCc1ccc(Nc2ccc(Cc3c[nH]c4ncnc(OC)c34)c(F)n2)cn1", "assayedSystem": "Receptor-type tyrosine-protein kinase FLT3 (Homo sapiens, UniProt P36888)", "pIC50": "> 7.00"}
{"compound": "Cc1nccc(N2CCC(Oc3ncc([C@H]4CC[C@H](O)CC4)c4nc(N[C@@H](C)CC(F)(F)F)ncc34)CC2)n1", "assayedSystem": "Receptor-type tyrosine-protein kinase FLT3 (Homo sapiens, UniProt P36888)", "pIC50": "6.00 to 7.00"}

Hi! What's the reported pIC50 for CCCC(C)Nc1ncc2c(OC3CCOCC3)ncc([C@H]3CC[C@@H](N(C)C)CC3)c2n1 (stereo partly drawn) on Receptor-type tyrosine-protein kinase FLT3 (Homo sapiens, UniProt P36888)?
5.00 to 6.00

# query: pIC50 | item Cc1ccc(C(=O)NC(=O)Nc2ccc3c(c2)NC(=O)/C3=C\c2[nH]c(C)c(C(=O)O)c2C)cc1 | system: Receptor-type tyrosine-protein kinase FLT3 (Homo sapiens, UniProt P36888)
6.58

Observed pIC50 on Receptor-type tyrosine-protein kinase FLT3 (Homo sapiens, UniProt P36888) for CCc1nc2c(N)ncc(-c3cnn(C4CCN(c5cc(F)cc(F)c5)CC4)c3)c2nc1N[C@@H]1CC[C@H](O)C1 , please.
≥ 8.00

Short answer please: pIC50, Receptor-type tyrosine-protein kinase FLT3 (Homo sapiens, UniProt P36888), entry CCC1(Nc2ncc3c(-c4ccc(CN5CCN(C)CC5)cc4)cc([C@H]4CC[C@H](O)CC4)n3n2)CCC1
5.00 to 6.00

Identify the measured pIC50 of COCC(C)Nc1ncc2c(-c3cccc(C)n3)cc(C3CCC(O)CC3)n2n1 (stereo not drawn) for Receptor-type tyrosine-protein kinase FLT3 (Homo sapiens, UniProt P36888).
5.00 to 6.00

Recorded pIC50 for CS(=O)(=O)N1CC[C@H](Nc2ncc3c(OC4CCOCC4)ncc([C@H]4CC[C@H](O)CC4)c3n2)C1 with Receptor-type tyrosine-protein kinase FLT3 (Homo sapiens, UniProt P36888), please?
5.00 to 6.00
